Data credit: paper PMC5055185

List of IC50 values.
Tested on: CTOS76 colorectal cancer tissue‐originated spheroids
measurement.notes: cell survival (trypan blue exclusion, 5 days), CTOS76
Assay type: cell-based, human
setup.conditions: CTOS76; cellular survival, 5 days

CC[PH](CC)(CC)[Au][S][C@@H]1O[C@H](COC(C)=O)[C@@H](OC(C)=O)[C@H](OC(C)=O)[C@H]1OC(C)=O [Aura, Auranofin] | 2.83 µM

Data request: # query: IC50 of entry COc1cc(/C=C/C(=O)N2CCC=CC2=O)cc(OC)c1OC [Pipe, Piperlongumine]
Data returned: 7.15 µM

---

System: CTOS88 colorectal cancer tissue‐originated spheroids
measurement.notes: cell survival (trypan blue exclusion, 5 days), CTOS88
Type: cell-based, human
setup.conditions: calculated from average % survival
List of IC50 values.
Give just the number in µM; leave the unit off.

COc1cc(/C=C/C(=O)N2CCC=CC2=O)cc(OC)c1OC [Pipe, Piperlongumine] | 4.25

Shift focus to the following entry.
Data request: # query: IC50 of entry CC[PH](CC)(CC)[Au][S][C@@H]1O[C@H](COC(C)=O)[C@@H](OC(C)=O)[C@H](OC(C)=O)[C@H]1OC(C)=O [Aura, Auranofin]
Data returned: 2.34
